Entry source: patent US12409174B2

- experiment notes: Zibotentan and dapagliflozin blood concentrations, Experiment 2
- condition description: male, Wistar, rat, in vivo, 30 mg/kg, Zibotentan blood concentration, Exp 2; Zibo 30 mg/kg p.o. QD 7 days; 24 hr post last dose
readout name: concentration at 24 h (µM)
Write it as a number; the unit µM goes unstated.

Query: I am curious: what concentration at 24 h value has been reported for "COc1nc(C)cnc1NS(=O)(=O)c1cccnc1-c1ccc(-c2nnco2)cc1" ?
Result: 22.9

====

- experiment notes: Zibotentan blood concentrations, Experiment 1
- Type: in vivo, male Wistar rats
- condition description: male, Wistar, rat, whole blood, oral, 100 mg/kg, Exp 1; Zibo 100 mg/kg p.o. QD; 4 hr post first dose
readout name: concentration at 4 h (µM)
Output spec: scalar in µM, unitless text.

Query: Field request: concentration at 4 h | item: COc1nc(C)cnc1NS(=O)(=O)c1cccnc1-c1ccc(-c2nnco2)cc1 [Zibo]
Result: 134
